Molecular target: P2X7 receptor (Homo sapiens)
Sequence (Q99572 whole entry): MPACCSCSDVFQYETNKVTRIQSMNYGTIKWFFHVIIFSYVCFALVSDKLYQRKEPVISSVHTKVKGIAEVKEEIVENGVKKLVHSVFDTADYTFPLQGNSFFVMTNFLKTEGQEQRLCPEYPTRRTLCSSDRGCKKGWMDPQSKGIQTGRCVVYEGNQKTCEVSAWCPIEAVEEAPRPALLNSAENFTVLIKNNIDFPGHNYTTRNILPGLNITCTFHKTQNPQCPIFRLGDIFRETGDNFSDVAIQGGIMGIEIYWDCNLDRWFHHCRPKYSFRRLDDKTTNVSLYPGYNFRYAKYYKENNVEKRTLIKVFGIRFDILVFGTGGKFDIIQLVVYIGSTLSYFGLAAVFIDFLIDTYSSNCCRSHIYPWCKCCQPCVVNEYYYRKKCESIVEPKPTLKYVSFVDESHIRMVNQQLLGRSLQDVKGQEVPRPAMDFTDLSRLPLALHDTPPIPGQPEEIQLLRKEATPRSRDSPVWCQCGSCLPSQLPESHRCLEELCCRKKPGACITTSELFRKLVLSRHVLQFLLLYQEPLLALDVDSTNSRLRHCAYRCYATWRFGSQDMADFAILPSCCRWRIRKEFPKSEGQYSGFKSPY
Experiment: IL-1β release assay in differentiated THP-1 cells (Example 9)
Conditions: THP-1 cells differentiated with LPS and IFN-γ; 30 min pretreatment; BzATP 250 uM; IL-1β by ELISA
test-readout: pIC50
# pIC50 is unitless: minus log10 of the molar concentration; print number only

Ask: Give pIC50 for this entry on P2X7 receptor (Homo sapiens): C[C@H](CO)n1ccc2c(C(=O)NCC3(O)CCC4(CC3)CC4)c(Cl)ccc2c1=O [Compound 63]
Result: 9.22

Ask: Report pIC50 from P2X7 receptor (Homo sapiens) testing of Cc1ccc2c(=O)n([C@H](C)CO)ccc2c1NC(=O)Cc1ccc(C(F)(F)F)c(F)c1 [Compound 21]
Result: 9.40

Ask: State recorded pIC50 with P2X7 receptor (Homo sapiens), entry Cc1ccc2c(=O)n([C@H](C)CO)ccc2c1NC(=O)Cc1cccc(C(F)(F)F)c1 [Compound 35] , no comment.
Result: 8.70

Ask: Fill in pIC50 for C[C@H](CO)n1ccc2c(C(=O)NCc3cccc(C(F)(F)F)c3)c(Cl)ccc2c1=O [Compound 44] tested with P2X7 receptor (Homo sapiens).
Result: 8.00

Ask: Give P2X7 receptor (Homo sapiens) pIC50 for the following compound: C[C@H](CO)n1ccc2c(C(=O)NCc3ccc(C(F)(F)F)c(F)c3)c(Cl)ccc2c1=O [Compound 41]
Result: 8.15

Ask: Under P2X7 receptor (Homo sapiens): report pIC50 of C[C@H](C(N)=O)n1ccc2c(NC(=O)Cc3cccc(C(F)(F)F)c3F)c(Cl)ccc2c1=O [Compound 5] .
Result: 8.15

Ask: Retrieve pIC50 on P2X7 receptor (Homo sapiens); query Cc1ccc2c(=O)n([C@@H](C)CO)ccc2c1NC(=O)Cc1ccc(C(F)(F)F)c(F)c1 [Compound 33]
Result: 7.28

Ask: Provide measured pIC50 on P2X7 receptor (Homo sapiens) for C[C@H](CO)n1ccc2c(C(=O)NCC3(O)CCC(C(F)(F)F)CC3)c(Cl)ccc2c1=O (some centres unmarked) [Compound 56] please.
Result: 8.05

Ask: Check P2X7 receptor (Homo sapiens) data and give pIC50 for Cc1ccc2c(=O)n(C(CO)CO)ccc2c1NC(=O)Cc1ccc(C(F)(F)F)c(F)c1 [Compound 62] .
Result: 7.52

Ask: System P2X7 receptor (Homo sapiens). Read-out pIC50. Item Cc1ccc2c(=O)n([C@H](C)CO)ccc2c1C(=O)NCC1(O)CCCCCC1 [Compound 52] . Report value.
Result: 8.40

Ask: # lookup: P2X7 receptor (Homo sapiens) pIC50, key = C[C@H](CO)n1ccc2c(NC(=O)Cc3cccc(C(F)(F)F)c3)c(Cl)ccc2c1=O [Compound 39]
Result: 9.00

Ask: Name the value of pIC50 reported for Cc1ccc2c(=O)n([C@H](C)CO)ccc2c1NC(=O)Cc1ccc(C(F)(F)F)cc1 [Compound 25] when tested on P2X7 receptor (Homo sapiens).
Result: 8.22

Ask: Specify the recorded pIC50 for C[C@H](CO)n1ccc2c(NC(=O)Cc3ccc(C(F)(F)F)c(F)c3)c(C3CC3)ccc2c1=O [Compound 17] , system: P2X7 receptor (Homo sapiens).
Result: 8.05

Ask: Find the measured pIC50 of Cc1ccc2c(=O)n(CCO)ccc2c1NC(=O)Cc1ccc(F)c(C(F)(F)F)c1 [Compound 27] with P2X7 receptor (Homo sapiens) as test system.
Result: 8.15

---

Test: Half-life in human liver microsomes (HLM)
Type: in vitro ADME
Details: human liver microsomes 0.78 mg/mL, 1 μM compound, NADPH, 37° C.
Hi there, I'd appreciate the recorded Half Life for every entry that follows.
Numeric answer only, unit h assumed.

Ask: Give the measured Half Life for C[C@H](CO)n1ccc2c(NC(=O)Cc3ccc(C(F)(F)F)c(F)c3)c(Cl)ccc2c1=O
Result: 1.6

Ask: Read off the recorded Half Life for C[C@H](C(N)=O)n1ccc2c(NC(=O)Cc3ccc(C(F)(F)F)cc3)c(Cl)ccc2c1=O
Result: 3.3

Ask: Recall and state the measured Half Life for Cc1ccc2c(=O)n(CCO)ccc2c1NC(=O)Cc1ccc(C(F)(F)F)c(F)c1 .
Result: 3.7

Ask: Please give the documented Half Life of C[C@H](C(N)=O)n1ccc2c(NC(=O)Cc3cccc(C(F)(F)F)c3F)c(Cl)ccc2c1=O
Result: 1.2

Ask: Indicate the recorded Half Life value for this compound: C[C@H](CO)n1ccc2c(NC(=O)Cc3ccc(F)c(C(F)(F)F)c3)c(Cl)ccc2c1=O
Result: 1.0

Ask: Give reported Half Life value for C[C@H](CO)n1ccc2c(NC(=O)Cc3ccc(C(F)(F)F)cc3)c(Cl)ccc2c1=O
Result: 3.2

---

Test: Half-life in human liver microsomes (HLM)
Type: in vitro ADME
Settings: pH 7.4; human liver microsomes 0.78 mg/mL, 1 μM compound, NADPH, 37° C.
Decide using half-life at 1 μM: a value greater than or equal to 1 h is Satisfied, a smaller one is Not satisfied.

Ask: Please indicate if the recorded half-life at 1 μM for Cc1ccc2c(=O)n([C@H](C)CO)ccc2c1C(=O)NCc1ccc(C(F)(F)F)c(F)c1 [Compound 40] meets or exceeds 1 h.
Result: Satisfied

Ask: Is half-life at 1 μM for C[C@H](CO)n1ccc2c(C(=O)NCC3(O)CCC(C)(C)CC3)c(Cl)ccc2c1=O [Compound 54] at or above 1 h?
Result: Not satisfied

Ask: Please tell me: is the molecule Cc1ccc2c(=O)n([C@H](C)CO)ccc2c1NC(=O)Cc1ccc(C(F)(F)F)cc1 [Compound 25] at or over 1 h in terms of half-life at 1 μM?
Result: Satisfied

Ask: Is half-life at 1 μM at least 1 h? Consider Cc1ccc2c(=O)n([C@H](C)CO)ccc2c1NC(=O)Cc1cccc(C(F)(F)F)c1F [Compound 23]
Result: Satisfied

Ask: Determine whether measured half-life at 1 μM meets or exceeds 1 h for Cc1ccc2c(=O)n([C@H]3CCNC3)ccc2c1NC(=O)Cc1ccc(C(F)(F)F)c(F)c1 [Compound 29]
Result: Satisfied

Ask: Confirm if half-life at 1 μM reported for the molecule C[C@H](CO)n1ccc2c(C(=O)NCC3(O)CCC(F)(F)CC3)c(Cl)ccc2c1=O [Compound 68] is 1 h or above.
Result: Not satisfied

Ask: hey, is half-life at 1 μM for this one >= 1 h? Cc1ccc2c(=O)n([C@H](C)C(N)=O)ccc2c1NC(=O)Cc1ccc(C(F)(F)F)c(F)c1 [Compound 51]
Result: Satisfied

Ask: Please check the record C[C@H](CO)n1ccc2c(C(=O)NCc3cccc(C(F)(F)F)c3)c(Cl)ccc2c1=O [Compound 44] and state if its half-life at 1 μM is at or above 1 h.
Result: Satisfied

Ask: Confirm if half-life at 1 μM reported for the molecule C[C@H](CO)n1ccc2c(C(=O)NCC3(O)CCCCCC3)c(Cl)ccc2c1=O [Compound 47] is 1 h or above.
Result: Not satisfied

---

Give pIC50 for every item shown.
Molecular target: P2X7 receptor (Homo sapiens)
Assay: IL-1β release assay in differentiated THP-1 cells (Example 9)
Details: THP-1 cells differentiated with LPS and IFN-γ; 30 min pretreatment; BzATP 250 uM; IL-1β by ELISA
Bear in mind: pIC50 is minus log10 of a mol/L concentration; give just that figure.

Ask: State the measured pIC50 (P2X7 receptor (Homo sapiens)) of C[C@H](CO)n1ccc2c(C(=O)NCC3(O)CC4CCC3C4)c(Cl)ccc2c1=O (some centres unmarked) [Compound 53]
Result: 6.27

Ask: Consider the molecule C[C@H](C(N)=O)n1ccc2c(NC(=O)CC34CC5CC(CC(C5)C3)C4)c(Cl)ccc2c1=O [Compound 2] tested on P2X7 receptor (Homo sapiens); state its pIC50.
Result: 10.00

Ask: Fill in pIC50 for O=C(Cc1ccc(F)c(C(F)(F)F)c1)Nc1c(Cl)ccc2c(=O)n(CCO)ccc12 [Compound 19] tested with P2X7 receptor (Homo sapiens).
Result: 8.30

Ask: Recall the reported pIC50 of C[C@@H](C(N)=O)n1ccc2c(NC(=O)Cc3ccc(C(F)(F)F)cc3)c(Cl)ccc2c1=O [Compound 8] when tested on P2X7 receptor (Homo sapiens).
Result: 6.95

Ask: Enter recorded pIC50 with P2X7 receptor (Homo sapiens) for C[C@H](CO)n1ccc2c(C(=O)NCC3(O)CCC(F)CC3)c(Cl)ccc2c1=O (some centres unmarked) [Compound 69] here.
Result: 8.22

Ask: Please respond with reported pIC50 (system P2X7 receptor (Homo sapiens)) for C[C@H](CO)n1ccc2c(C(=O)NCc3ccc(Cl)c(F)c3)c(Cl)ccc2c1=O [Compound 45] .
Result: 7.89

Ask: Give reported pIC50 for C[C@H](CO)n1ccc2c(NC(=O)Cc3ccc(Cl)c(F)c3)c(Cl)ccc2c1=O [Compound 15] (P2X7 receptor (Homo sapiens))
Result: 8.22

Ask: State recorded pIC50 with P2X7 receptor (Homo sapiens), entry COc1ccc2c(=O)n([C@H](C)C(N)=O)ccc2c1NC(=O)Cc1ccc(C(F)(F)F)cc1 [Compound 7] , no comment.
Result: 7.32

Ask: Write pIC50 of CNCCn1ccc2c(NC(=O)Cc3ccc(C(F)(F)F)c(F)c3)c(C)ccc2c1=O [Compound 38] ; system used: P2X7 receptor (Homo sapiens)
Result: 7.37

Ask: Jot down pIC50 (P2X7 receptor (Homo sapiens)) of C[C@H](CO)n1ccc2c(C(=O)NCc3ccccc3C(F)(F)F)c(Cl)ccc2c1=O [Compound 46] .
Result: 6.30

Ask: // fetch pIC50 for C[C@H](CO)n1ccc2c(C(=O)NCC3(O)CCCCC3)c(Cl)ccc2c1=O [Compound 57] ; system: P2X7 receptor (Homo sapiens)
Result: 8.30

Ask: Output reported pIC50 of the molecule Cc1ccc2c(=O)n([C@H](C)CN)ccc2c1NC(=O)Cc1ccc(C(F)(F)F)c(F)c1 [Compound 58] on P2X7 receptor (Homo sapiens).
Result: 11.00

Ask: Please indicate recorded pIC50 of O=C(Cc1cccc(C(F)(F)F)c1F)Nc1c(Cl)ccc2c(=O)n(CCO)ccc12 [Compound 20] measured with P2X7 receptor (Homo sapiens).
Result: 7.20

Ask: Report pIC50 from P2X7 receptor (Homo sapiens) testing of Cc1ccc2c(=O)n([C@H](C)CO)ccc2c1NC(=O)CC1(O)CCCCCC1 [Compound 37]
Result: 7.38

Ask: Report pIC50 from P2X7 receptor (Homo sapiens) testing of COc1ccc2c(=O)n([C@H](C)CO)ccc2c1NC(=O)Cc1ccc(C(F)(F)F)c(F)c1 [Compound 9]
Result: 6.36

Ask: Please look at Cc1ccc2c(=O)n(CCO)ccc2c1NC(=O)Cc1ccc(C(F)(F)F)c(F)c1 [Compound 28] and tell me its recorded pIC50 on P2X7 receptor (Homo sapiens).
Result: 8.05

Ask: Retrieve pIC50 on P2X7 receptor (Homo sapiens); query C[C@H](CO)n1ccc2c(C(=O)NCC3(O)CCC(C)(C)CC3)c(Cl)ccc2c1=O [Compound 54]
Result: 9.00

Ask: Output reported pIC50 of the molecule Cc1ccc2c(=O)n([C@H](C)CO)ccc2c1C(=O)NCc1cccc(C(F)(F)F)c1 [Compound 42] on P2X7 receptor (Homo sapiens).
Result: 8.15

Ask: # return pIC50 for C[C@H](CO)n1ccc2c(C(=O)NCC3(O)CCCC(C)(C)C3)c(Cl)ccc2c1=O (some centres unmarked) [Compound 55] , test system: P2X7 receptor (Homo sapiens)
Result: 9.00

Ask: Provide pIC50, tested on P2X7 receptor (Homo sapiens), for Cc1ccc2c(=O)n([C@H](C)CO)ccc2c1C(=O)NCc1ccc(Cl)c(F)c1 [Compound 50] .
Result: 8.52

Ask: State the measured pIC50 (P2X7 receptor (Homo sapiens)) of Cc1ccc2c(=O)n([C@H](C)CN3CC[C@@H](N)C3)ccc2c1NC(=O)Cc1ccc(C(F)(F)F)c(F)c1 [Compound 67]
Result: 8.70

Ask: Answer briefly: pIC50 recorded on P2X7 receptor (Homo sapiens) for Cc1ccc2c(=O)n([C@H](C)CO)ccc2c1NC(=O)Cc1ccc(F)c(C(F)(F)F)c1 [Compound 22]
Result: 9.15

Ask: # assay system P2X7 receptor (Homo sapiens): give pIC50 of Cc1ccc2c(=O)n([C@H](C)CO)ccc2c1C(=O)NCc1ccc(C(F)(F)F)c(F)c1 [Compound 40]
Result: 8.52

Ask: Quote P2X7 receptor (Homo sapiens) pIC50 for entry O=C(Cc1ccc(C(F)(F)F)c(F)c1)Nc1c(Cl)ccc2c(=O)n(CCO)ccc12 [Compound 16] .
Result: 8.22

Ask: Fetch value of pIC50 on P2X7 receptor (Homo sapiens) for C[C@H](CO)n1ccc2c(NC(=O)CC3CCCCCC3)c(Cl)ccc2c1=O [Compound 36] .
Result: 8.40

Ask: Tell me its pIC50 on P2X7 receptor (Homo sapiens): Cc1ccc2c(=O)n([C@H]3CCNC3)ccc2c1NC(=O)Cc1ccc(C(F)(F)F)c(F)c1 [Compound 29]
Result: 7.64

Ask: Name the value of pIC50 reported for C[C@H](CO)n1ccc2c(NC(=O)Cc3ccc(C(F)(F)F)cc3F)c(Cl)ccc2c1=O [Compound 14] when tested on P2X7 receptor (Homo sapiens).
Result: 7.51

Ask: Give pIC50 for this entry on P2X7 receptor (Homo sapiens): C[C@H](CO)n1ccc2c(C(=O)NCC3CCC(F)(F)CC3)c(Cl)ccc2c1=O [Compound 61]
Result: 8.30

Ask: Report value only: pIC50, P2X7 receptor (Homo sapiens), C[C@H](CO)n1ccc2c(C(=O)NCC3(O)CCC4(CC3)CC4(F)F)c(Cl)ccc2c1=O (some centres unmarked) [Compound 65]
Result: 9.52

Ask: Find the measured pIC50 of C[C@H](CO)n1ccc2c(C(=O)NCc3ccc(C(F)(F)F)nc3)c(Cl)ccc2c1=O [Compound 43] with P2X7 receptor (Homo sapiens) as test system.
Result: 6.51

Ask: Would you please give the reported pIC50 of C[C@H](CO)n1ccc2c(NC(=O)Cc3ccc(C(F)(F)F)cc3)c(Cl)ccc2c1=O [Compound 10] with P2X7 receptor (Homo sapiens)?
Result: 8.00

Ask: Please respond with reported pIC50 (system P2X7 receptor (Homo sapiens)) for C[C@H](CO)n1ccc2c(NC(=O)Cc3ccc(C(F)(F)F)c(F)c3)c(Cl)ccc2c1=O [Compound 11] .
Result: 8.30

Source: patent US8093265B2
